test system: A498 renal; test: NCI-60 one-dose screen, 48 h (100 = growth as untreated, 0 = no growth, -100 = all killed); conditions: 10 µM unless noted
This is part of a sample that, as a whole, favours compounds with a hit. Of some 83,000 tested, about 20% had one in any assay.
endpoint: growth (%)
Answer format: numeric, % implied, no suffix.

compound	growth, %
Cc1ccc(-c2cc(C(=O)N3N=C(c4ccc(N)cc4)CC3c3ccc(Cl)cc3)c3ccccc3n2)cc1 (stereo not given)	0.316
CN(C)c1ccc(/C=C/C(=O)c2ccccc2)cc1	74
CCCCN1C(=O)/C(=c2\sc3n(c2=O)NC2C(N=3)N(CC)C(=O)N2CC)c2ccccc21 (stereo not given)	42.3
Clc1nccc2c(-c3csc(-c4c[nH]c5ccccc45)n3)c[nH]c12	32.7
Cc1c2cnccc2c(C)c2c1c1cc(C3OCCCO3)ccc1n2C	-56.6
CS(=O)(=O)Cc1cnc(C2OCCO2)s1	116

Ask | // fetch growth; item: Cc1ccc(/C=C2\CN(C(=O)C(Cl)Cl)C/C(=C\c3ccc(C)cc3)C2=O)cc1 ; system: A498 renal
Reply | -89.3

* * *

system: M14 melanoma; test: NCI-60 one-dose screen, 48 h (100 = growth as untreated, 0 = no growth, -100 = all killed); settings: 10 µM unless noted
This is part of a sample that, as a whole, favours compounds with a hit. Of some 83,000 tested, about 20% had one in any assay.
endpoint: growth (%)
Answer format: numeric, % implied, no suffix.

Ask | Quickly give me recorded growth for CN1C(=O)N(C)C2C1NC(=S)N2/N=C/C=C/c1ccccc1[N+](=O)[O-] (stereo not given)
Reply | 6.06

* * *

tested on: 786-0 renal; assay: NCI-60 one-dose screen, 48 h; conditions: 10 µM unless noted
This is part of a sample that, as a whole, favours compounds with a hit. Of some 83,000 tested, about 20% had one in any assay. Calls of active or inactive are those of the source. Rule for the calls: active = growth percent below 10; inactive = the rest.
Outcome field: choose from yes (1) (active), no (0) (inactive)

Take a look at these entries with their results.
compound	labelClass
O=C(CBr)CN1C(=O)c2ccccc2C1=O	no (0)
CCCCn1sc(=O)n(Cc2ccc(CNC(=O)OCc3ccc4c(Br)cc(Br)c(O)c4n3)cc2)c1=O	no (0)
COc1cccc(C(=O)OCC(O)C(=O)NC23CC4CC(CC(C4)C2)C3)c1 (centres undefined)	no (0)
C=C(CO)[C@@H]1CC[C@]2(COC3CCCCO3)CC[C@]3(C)[C@H](CC[C@@H]4[C@@]5(C)C=C(C=O)C(=O)C(C)(C)[C@@H]5CC[C@]43C)[C@@H]12 (some centres undefined)	yes (1)
O=C1C(Cl)=C(NCCN2CCOCC2)C(=O)c2ncccc21	no (0)

Ask | Per the assay record, what outcome was assigned to CCn1cc(C(=O)NN=C2CCCCCC2)c(=O)c2ccc(C)nc21 ?
Reply | no (0)

Ask | Per the assay record, what outcome was assigned to Cc1cc2nc3c4ccccc4n(CCN(C)C)c3nc2cc1C ?
Reply | no (0)

Ask | Per the assay record, what outcome was assigned to CCCCCCCCn1ccc2cc(NC(=O)Cn3cc(CN4CCOCC4)nn3)ccc21 ?
Reply | no (0)

Ask | Per the assay record, what outcome was assigned to Cc1ncc(C(=O)Nc2ccc(CN3CCN(C)CC3)c(C(F)(F)F)c2)cc1C#Cc1cnc(N)c2ccncc12 ?
Reply | yes (1)

Ask | Per the assay record, what outcome was assigned to C=C1C(=O)O[C@H]2[C@H]1CC/C(COC(=O)NCc1ccc(Cn3c(=O)sn(-c4ccc(OC)cc4)c3=O)cc1)=C\CC[C@@]1(C)O[C@@H]21 ?
Reply | no (0)

Ask | Per the assay record, what outcome was assigned to C=C1C(=O)O[C@H]2[C@H]1CC/C(COC(=O)c1cc3cc(F)ccc3[nH]1)=C\CC[C@@]1(C)O[C@@H]21 ?
Reply | yes (1)

Ask | Per the assay record, what outcome was assigned to COCCCOc1cc(C[C@@H](C[C@H](N)[C@@H](O)C[C@H](C(=O)NCC(C)(C)C(N)=O)C(C)C)C(C)C)ccc1OC ?
Reply | no (0)

Ask | Per the assay record, what outcome was assigned to COc1cc2c(/C=C3\C(=O)Nc4ccccc43)c(C(=O)O)[nH]c2cc1C ?
Reply | no (0)

Ask | Per the assay record, what outcome was assigned to CCCNc1nc2ccccc2c2c(=O)c3cccc(Cl)c3sc12 ?
Reply | no (0)

Ask | Per the assay record, what outcome was assigned to Cn1ncc2ccc(-c3nc(-c4ccccc4)[nH]c3-c3n[nH]c(=O)n3C3CC3)cc21 ?
Reply | no (0)

Ask | Per the assay record, what outcome was assigned to Cn1cc(-c2nonc2-c2c[nH]c3ccc(F)cc23)c2cc(Br)ccc21 ?
Reply | no (0)

Ask | Per the assay record, what outcome was assigned to Fc1ccc(CNc2c3ccccc3nc3ccccc23)cc1 ?
Reply | no (0)

Ask | Per the assay record, what outcome was assigned to COc1ccc2nc3cc(Cl)ccc3c(NCCN)c2c1 ?
Reply | yes (1)

Ask | Per the assay record, what outcome was assigned to CCOC(=O)c1c(-c2ccccc2)n2c(=O)cc(C)c3c(O)c(O)cc1c32 ?
Reply | no (0)

* * *

tested on: MALME-3M melanoma; assay: NCI-60 one-dose screen, 48 h (100 = growth as untreated, 0 = no growth, -100 = all killed); conditions: 10 µM unless noted
Compounds without any hit were thinned out: in the full panel of roughly 83,000, 20% have a hit.
endpoint: growth (%)
Answer format: numeric, % implied, no suffix.

Worked set:
compound	growth, %
CCCCCSB(SCCCCC)c1ccccc1	101
Cc1ccc(-c2cc(C(=O)N3N=C(c4ccc(N)cc4)CC3c3ccc(Cl)cc3)c3ccccc3n2)cc1 (stereo not drawn)	67

Now examine the next entry.
Ask | Quickly give me recorded growth for C#CC#CC#CC#CC#CC#CC#CC#CC[C@H]1OC[C@@H](COC(=O)O[C@@H](C(=O)O[C@H]2C[C@@]3(O)[C@@H](OC(=O)c4ccccc4)[C@@H]4[C@]5(OC(C)=O)CO[C@@H]5C[C@H](O)[C@@]4(C)C(=O)[C@H](OC(C)=O)C(=C2C)C3(C)C)[C@@H](NC(=O)c2ccccc2)c2ccccc2)O1
Reply | 62.5

* * *

tested on: HCT-15 colon; test: NCI-60 one-dose screen, 48 h; details: 10 µM unless noted
Compounds without any hit were thinned out: in the full panel of roughly 83,000, 20% have a hit. Calls of active or inactive are those of the source. How the source made its calls: active means growth percent below 10; inactive means the rest.
Outcome field: choose from active, inactive

Take a look at these entries with their results.
                                   compound  labelclass
0           Clc1ccc(-c2cn3ccsc3n2)c(Cl)c1Cl    inactive
1  COc1cc2c3c(n(CCCCNCCCn4c5c(c6cc(OC)c(OC)cc6c4=O)C(=O)c4cc6c(cc4-5)OCO6)c(=O)c2cc1OC)-c1cc2c(cc1C3=O)OCO2    inactive
2               Cc1ccc(C)n1/C=C/n1c(C)ccc1C    inactive
3  CC(CN)[C@@H]1CC[C@]2(CO)CC[C@]3(C)[C@H](CC[C@@H]4[C@@]5(C)CCC(N)C(C)(C)[C@@H]5CC[C@]43C)[C@@H]12 (stereo partly drawn)      active
4  O=C(CN1C(=O)/C(=C/c2ccco2)SC1=S)NCCc1c[nH]c2ccc(F)cc12    inactive

Ask | Per the assay record, what outcome was assigned to COc1ccc(C2CC(c3ccc(Nc4nc(Nc5ccc(F)cc5)nc(Nc5ccc(F)cc5)n4)cc3)=NN2C(C)=O)cc1 (stereo not drawn) ?
Reply | inactive

Ask | Per the assay record, what outcome was assigned to O=C(N/N=C/c1ccc([N+](=O)[O-])cc1)c1ccc2nc(-c3ccc(Cl)cc3)[nH]c2c1 ?
Reply | inactive

Ask | Per the assay record, what outcome was assigned to O=C(CSc1nc2ccc([N+](=O)[O-])cc2[nH]1)Nc1cccc([N+](=O)[O-])c1 ?
Reply | inactive

* * *

Test system: SF-295 CNS
Assay: NCI-60 one-dose screen, 48 h (100 = growth as untreated, 0 = no growth, -100 = all killed)
Details: 10 µM unless noted
Procedure: Cells are grown in 96 well plates and exposed to the test compound for 48 hours. Compounds are tested at a single concentration, which is 10^-5 M for most compounds. The reported endpoint is percent growth (GI% or GIPRCNT), where numbers from 0 - 100% represent growth inhibition, and numbers from -100% - 0 represent cell death. For example, a value of 40 represents 60% growth inhibition. A value of 0 means no net growth occurred over the course of the experiment. […]
The panel holds about 83,000 compounds, 20% with a hit somewhere; the sample as a whole holds those more often. Active and inactive are the calls of the source. Rule for the calls: active = growth percent below 10; inactive = the rest.
The molecules listed here are annotated with their growth.

Worked set:
>>> print(df.to_string())
                                   molecule             value
0  Cc1ccc(/C=C(\C#N)C(=O)Nc2ncc(Cc3cc(Cl)ccc3Cl)s2)o1    5.34% (active)
1  Nc1c(C(=O)Nc2cccc3ncccc23)sc2nc3c(cc12)C(=O)CCC3  21.3% (inactive)
2  CCC(CC)(N(CC(=O)O)CC(=O)O)C(CC)(CC)N(CC(=O)O)CC(=O)O   108% (inactive)
3  O=C(Nc1ccc(F)cc1)Nc1ccccc1CNc1nc(Nc2ccc(OCCN3CCCC3)cc2)ncc1Cl  82.3% (inactive)
4            N#CCC1=NC(c2cccs2)=Nc2ccccc2S1   103% (inactive)
5  CCCCCCCCCCCCCCCCOC(=O)c1c(C)[nH]c(/C=C2\N=C(c3ccc[nH]3)C=C2OC)c1C  68.7% (inactive)

Ask | Quickly give me recorded growth for Cc1c2cnccc2c(C)c2c1c1cc(C3OCCCO3)ccc1n2C
Reply | 0.404% (active)

Ask | Quickly give me recorded growth for CCNc1nc(-c2ccc(F)cc2)c(C#N)c(=O)n1C
Reply | 59.7% (inactive)

Ask | Quickly give me recorded growth for COCCCOc1cc(C[C@@H](C[C@H](N)[C@@H](O)C[C@H](C(=O)NCC(C)(C)C(N)=O)C(C)C)C(C)C)ccc1OC
Reply | 93% (inactive)

Ask | Quickly give me recorded growth for O=C(CCl)Nc1ccc2c(Nc3cc(O)ccc3Cl)ncnc2c1
Reply | -77.1% (active)

Ask | Quickly give me recorded growth for C=CCOC(=O)C1=C(C)NC(=O)NC1c1c(Cl)n(C)c2ccccc12 (stereo unspecified)
Reply | 99.4% (inactive)

Ask | Quickly give me recorded growth for O=C1/C(=C/c2ccc(C(F)(F)F)cc2)COc2ccc(O)c(O)c21
Reply | 85.8% (inactive)

Ask | Quickly give me recorded growth for COc1ccc2c(c1)c(-c1nonc1-c1c[nH]c3ccc(Br)cc13)cn2C
Reply | 40.2% (inactive)
